Data credit: patent US20210380548A1

What pIC50 was measured for each of the following?
- Assayed Target: MOZ-KAT6A (Homo sapiens, UniProt Q92794, A567V)
- Construct: encoding amino acid residues 507 to 778 (Uniprot Q92794-1) of human KAT6A; made in house; host or cells: E. coli BL21 DE3
- Sequence (Q92794 507-778 A567V limits assumed): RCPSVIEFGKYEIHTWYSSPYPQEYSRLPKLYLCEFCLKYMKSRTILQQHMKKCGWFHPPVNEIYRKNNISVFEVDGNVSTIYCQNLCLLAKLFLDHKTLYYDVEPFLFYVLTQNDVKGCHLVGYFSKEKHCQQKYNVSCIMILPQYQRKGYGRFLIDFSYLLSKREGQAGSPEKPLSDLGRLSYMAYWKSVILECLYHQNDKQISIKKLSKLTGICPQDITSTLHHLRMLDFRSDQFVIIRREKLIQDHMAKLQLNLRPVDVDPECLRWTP
- Assay Method Text: Acetyltransferase biochemical assay (AlphaScreen), KAT6A
- Run Parameters: Table 2 (MOZ-KAT6A); 10 μM Acetyl coenzyme A, histone H3.1, 5 nM enzyme
One number for each entry, as −log10 of the molar value.

Illustrative cases are given below, each with its answer.
Compound | Assayed Target | pIC50
N#Cc1ccccc1CCNC(=O)C1=Nc2ccccc2S(=O)(=O)N1 | MOZ-KAT6A (Homo sapiens, UniProt Q92794, A567V) | 4.22
O=C(NCCc1ccccc1OC(F)F)C1=Nc2ccc(I)cc2S(=O)(=O)N1 | MOZ-KAT6A (Homo sapiens, UniProt Q92794, A567V) | 6.23
O=C(NCCc1ccccc1Br)C1=Nc2ccccc2S(=O)(=O)N1 | MOZ-KAT6A (Homo sapiens, UniProt Q92794, A567V) | 5.35
O=C(NCCc1ccccn1)C1=Nc2ccc(Br)cc2S(=O)(=O)N1 | MOZ-KAT6A (Homo sapiens, UniProt Q92794, A567V) | 4.45
C#Cc1ccc2c(c1)S(=O)(=O)NC(C(=O)NCC(c1ccccc1)c1ccccc1)=N2 | MOZ-KAT6A (Homo sapiens, UniProt Q92794, A567V) | 6.27
O=C(NCC(c1ccccc1)c1ncco1)C1=Nc2ccccc2S(=O)(=O)N1 (single isomer, unassigned) [Example 137] | MOZ-KAT6A (Homo sapiens, UniProt Q92794, A567V) | 6.97

Batch of 2 compounds: report pIC50 for each.
1. CN(C)C(=O)c1ccc2c(c1)S(=O)(=O)NC(C(=O)NCC(c1ccccc1)c1ncco1)=N2 (stereo not drawn)
2. O=C(NCC(c1ccccc1)c1ncco1)C1=Nc2cccnc2S(=O)(=O)N1 (stereo not drawn)

### Response
1. 6.90
2. 5.93

====

- Assayed Target: TIP60-KAT5 (Homo sapiens)
- Construct: encoding amino acid residues 2 to 461 (Uniprot Q92993-2) of human KAT5 isoform; made in house; host or cells: E. coli BL21 DE3
- Sequence (Q92993 2-461 isoform Q92993-2): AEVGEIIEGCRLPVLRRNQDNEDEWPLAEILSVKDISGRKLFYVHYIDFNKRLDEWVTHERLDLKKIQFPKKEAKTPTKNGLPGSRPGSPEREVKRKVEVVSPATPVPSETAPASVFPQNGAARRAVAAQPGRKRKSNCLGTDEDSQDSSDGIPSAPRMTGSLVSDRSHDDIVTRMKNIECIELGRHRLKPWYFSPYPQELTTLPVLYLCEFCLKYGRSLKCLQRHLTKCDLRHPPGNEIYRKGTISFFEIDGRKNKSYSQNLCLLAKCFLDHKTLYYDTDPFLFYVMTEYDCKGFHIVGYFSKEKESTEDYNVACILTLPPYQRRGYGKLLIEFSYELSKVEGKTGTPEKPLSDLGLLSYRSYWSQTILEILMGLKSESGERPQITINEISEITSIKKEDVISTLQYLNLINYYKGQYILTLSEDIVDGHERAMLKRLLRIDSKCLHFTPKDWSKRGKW
- Assay Method Text: Revised Acetyltransferase Biochemical Assay, KAT5
- Run Parameters: 10 nM KAT5, 1 μM AcCoA, 100 nM histone H4, 90 min
Assay Metric: IC50 (µM)
Give bare numbers, in µM.

Compound | Assayed Target | IC50, µM
O=C(NCCc1ccccc1-c1cccnc1)C1=Nc2ccccc2S(=O)(=O)N1 [Example 34] | TIP60-KAT5 (Homo sapiens) | 70.3
O=C(NCC(c1ncco1)c1ccccc1I)C1=Nc2ccccc2S(=O)(=O)N1 (centres unmarked) [Example 174] | TIP60-KAT5 (Homo sapiens) | 15.3
COc1cc(C)cc(C(CNC(=O)C2=Nc3ccc(Cl)cc3S(=O)(=O)N2)c2ncco2)c1 (centres unmarked) [Example 159] | TIP60-KAT5 (Homo sapiens) | 3.2
COCc1nnc(C(CNC(=O)C2=Nc3ccc(I)cc3S(=O)(=O)N2)c2ccccc2)o1 (centres unmarked) [Example 171] | TIP60-KAT5 (Homo sapiens) | 1.16
CNC(C)c1ccc2c(c1)S(=O)(=O)NC(C(=O)NCC(c1ccccc1)c1ncco1)=N2 (centres unmarked) [Example 209] | TIP60-KAT5 (Homo sapiens) | 8.45

Value sought for every listed compound: IC50.
1. COc1cccc(C(CNC(=O)C2=Nc3ccc(Br)cc3S(=O)(=O)N2)c2ncco2)c1 (centres unmarked) [Example 188]
2. O=C(NCC(c1cccc(O)c1)c1ncco1)C1=Nc2ccc(I)cc2S(=O)(=O)N1 (centres unmarked) [Example 215]

### Response
1.44
0.025
